These data points were gathered from PubChem BioAssay (NCI).

# System: T-47D breast
# EXPERIMENTAL_DETAILS: NCI tumour cell line growth inhibition, 48 h
QUANTITY_KIND: TGI

So what's the measured TGI for this one? NS(=O)(=O)c1ccc(/C=C/c2ccc(F)cc2)cc1
57.6 µM

So what's the measured TGI for this one? Nc1ccc(S(=O)(=O)c2ccc(NCN3C(=O)NC(=O)C(=O)C3=O)cc2)cc1
> 100 µM

So what's the measured TGI for this one? Cc1ccc(S(=O)(=O)c2c(COC(=O)c3cccc(C)c3)c(-c3ccccc3)nn2C)cc1
> 100 µM

###

# Tested on: RXF 393 renal
# EXPERIMENTAL_DETAILS: NCI tumour cell line growth inhibition, 48 h
Would you mind telling me the reported TGI of each entry?

So what's the measured TGI for this one? NCCCC[C@@H]1NC(=O)[C@H]2CCCN2C(=O)[C@H](Cc2ccccc2)CNC(=O)[C@H](Cc2ccccc2)NC1=O
> 37.5 µM

So what's the measured TGI for this one? Nc1ccc(S(=O)(=O)c2ccc(NCN3C(=O)NC(=O)C(=O)C3=O)cc2)cc1
> 100 µM

So what's the measured TGI for this one? COc1cccc(N2C(=O)C3c4[nH]c5ccccc5c4C4CCCC4C3C2=O)c1 (centres undefined)
> 10 µM

So what's the measured TGI for this one? C=C[C@@H](C)[C@H](NS(=O)(=O)c1ccc(C)cc1)C(=O)OCC
> 100 µM

###

# Test system: SW-620 colon
# EXPERIMENTAL_DETAILS: NCI tumour cell line growth inhibition, 48 h
Would you mind telling me the reported GI50 of each entry?

So what's the measured GI50 for this one? Cc1ccccc1OCC(O)CN1CCN(c2ccc(Cl)cc2)CC1 (stereo not given)
16.1 µM

So what's the measured GI50 for this one? CC1=C(c2cccc(O)c2)[C@H](c2ccc(OCCN3CC(CF)C3)cc2)Oc2ccc(O)cc21
7.28 µM

So what's the measured GI50 for this one? CCCCCCC[CH2][Sn]([CH2]CCCCCCC)([O]c1cccc2cccnc12)[O]c1cccc2cccnc12
0.391 µM

So what's the measured GI50 for this one? CCCCOC(=O)N1CCN(/[N+]([O-])=N/Oc2ccc([N+](=O)[O-])cc2[N+](=O)[O-])CC1
3.38 µM

So what's the measured GI50 for this one? Cc1cc2c(cc1Cl)SC1=NN(C)C(C)N1S2(=O)=O (stereo not given)
> 100 µM

###

# Tested on: TK-10 renal
# EXPERIMENTAL_DETAILS: NCI tumour cell line growth inhibition, 48 h
QUANTITY_KIND: TGI

So what's the measured TGI for this one? Nc1ccc(S(=O)(=O)c2ccc(NCN3C(=O)NC(=O)C(=O)C3=O)cc2)cc1
> 100 µM

So what's the measured TGI for this one? C=C1CC2OC(=O)C(=C)C2C(O)C2C(=C)CCC12 (stereo not given)
28 µM

So what's the measured TGI for this one? O=C1CCCCC1S(=O)(=O)c1ccccc1 (stereo not given)
> 100 µM

So what's the measured TGI for this one? O=C1C=CC(=O)C2=C1[C@@H](O)C1CC=CC3C(=O)O[C@@H]2C31 (stereo not given in full)
> 58.1 µM

So what's the measured TGI for this one? COC(=O)C1(Cc2ccc3c(c2)CCC3)Cc2ccccc2C1O (stereo not given)
53.1 µM

So what's the measured TGI for this one? O=c1cc(N2CCCC2)[nH]c(=O)n1Cc1ccccc1
> 100 µM

So what's the measured TGI for this one? CCC1(c2ccccc2)Sc2ccccc2-n2cccc2C1=O (stereo not given)
> 10 µM

So what's the measured TGI for this one? Cc1cc(S(=O)(=O)N/C(=C(\C#N)C(=O)c2ccc(Cl)cc2)[n+]2ccc(N(C)C)cc2)c([S-])cc1Cl
> 100 µM

So what's the measured TGI for this one? NCCCC[C@@H]1NC(=O)[C@H]2CCCN2C(=O)[C@H](Cc2ccccc2)CNC(=O)[C@H](Cc2ccccc2)NC1=O
> 37.5 µM

So what's the measured TGI for this one? Cc1cc2c(cc1Cl)SC1=NN(C)C(C)N1S2(=O)=O (stereo not given)
> 100 µM

###

# Tested on: ACHN renal
# EXPERIMENTAL_DETAILS: NCI tumour cell line growth inhibition, 48 h
QUANTITY_KIND: TGI (µM)
Note: unit µM is implicit; provide only the numeric part.

So what's the measured TGI for this one? CSCCC(N)C(=O)NCCNc1ccc(NCCNC(=O)C(N)CCSC)c2c1C(=O)c1ccccc1C2=O (stereo unspecified)
5.45

So what's the measured TGI for this one? O=C1C(Nc2ccc(Cl)cc2)=C(I)C(=O)c2ncccc21
1.32

So what's the measured TGI for this one? CC1=C(c2cccc(O)c2)[C@H](c2ccc(OCCN3CC(CF)C3)cc2)Oc2ccc(O)cc21
18.6

###

# Test system: NCI-H226 lung
# EXPERIMENTAL_DETAILS: NCI tumour cell line growth inhibition, 48 h
Would you mind telling me the reported TGI of each entry?
Note: unit µM is implicit; provide only the numeric part.

So what's the measured TGI for this one? Cc1cc(F)ccc1S(=O)(=O)Nc1cc(-c2c(O)ccc3ccccc23)c(O)c2ccccc12
14.5

So what's the measured TGI for this one? Cc1ccc2c(=O)cc(-c3ccc(Cl)s3)[nH]c2n1
7.79

###

# System: HOP-62 NSCLC
# EXPERIMENTAL_DETAILS: NCI tumour cell line growth inhibition, 48 h
Would you mind telling me the reported TGI of each entry?

So what's the measured TGI for this one? C[C@@]12CCC(=O)c3coc(c31)C(=O)c1cc3c(cc12)C(=O)C=CC3=O
> 100 µM

So what's the measured TGI for this one? C[C@@H]1[C@H](C)N1CC(O)Cn1ccnc1[N+](=O)[O-] (stereo partly drawn)
> 100 µM

So what's the measured TGI for this one? Nc1ncnc2c1N=C(c1ccc3c(c1)OCO3)CC(c1ccc([N+](=O)[O-])cc1)N2 (stereo not drawn)
> 100 µM

So what's the measured TGI for this one? CCNCCCn1c2c(c3ccc(Cl)cc3c1=O)C(=O)c1cc(OC)cnc1-2
1.43 µM

So what's the measured TGI for this one? O=C(Nc1cccc(-n2cc(-c3ccncc3)c(-c3ccc(Cl)c(O)c3)n2)c1)Nc1cc(C(F)(F)F)cc(C(F)(F)F)c1
1.81 µM

So what's the measured TGI for this one? Cc1ccccc1OCC(O)CN1CCN(c2ccc(Cl)cc2)CC1 (stereo not drawn)
32.3 µM

So what's the measured TGI for this one? COc1ccc(C2=Nc3cc(C)c(C)cc3NC(c3ccccc3)C2)cc1 (stereo not drawn)
> 100 µM

So what's the measured TGI for this one? O=S(=O)(c1ccc(NC2=NC(c3ccc(O)cc3)(c3ccccc3O)c3ccccc32)cc1)c1ccc(NC2=NC(c3ccc(O)cc3)(c3ccccc3O)c3ccccc32)cc1 (stereo not drawn)
> 100 µM

So what's the measured TGI for this one? Cc1cc2c(cc1Cl)SC1=NN(C)C(C)N1S2(=O)=O (stereo not drawn)
> 100 µM

So what's the measured TGI for this one? CC1=C(c2cccc(O)c2)[C@H](c2ccc(OCCN3CC(CF)C3)cc2)Oc2ccc(O)cc21
27.5 µM

So what's the measured TGI for this one? Cc1ccc(S(=O)(=O)c2c(COC(=O)c3cccc(C)c3)c(-c3ccccc3)nn2C)cc1
> 100 µM

So what's the measured TGI for this one? CN(C)c1ccc(/C(F)=C(F)/C(F)=C(F)/C(F)=C(\F)c2ccc(Br)cc2)cc1
> 100 µM

So what's the measured TGI for this one? COc1cccc(-c2c[nH]c3c(N/N=C/c4ccncc4)ncnc23)c1
> 15.3 µM

###

# Tested on: SR leukemia
# EXPERIMENTAL_DETAILS: NCI tumour cell line growth inhibition, 48 h
Would you mind telling me the reported TGI of each entry?

So what's the measured TGI for this one? Cc1cc2c(C(C)C)c(O)c(O)cc2c(O)c1-c1c(C)cc2c(C(C)C)c(O)c(O)cc2c1O
28.4 µM

So what's the measured TGI for this one? C[N+](C)(C)c1ccc(C(N)C(=O)O)cc1 (stereo not drawn)
> 100 µM

So what's the measured TGI for this one? OCCO/N=C1\C(c2c(O)[nH]c3ccccc23)=Nc2ccccc21
> 100 µM

So what's the measured TGI for this one? COc1ccc(C2=Nc3cc(C)c(C)cc3NC(c3ccccc3)C2)cc1 (stereo not drawn)
54.5 µM

So what's the measured TGI for this one? C/C=C/c1cc(=O)c([C@@H]2OC(=O)c3cc(OC)cc(OC)c32)co1
> 100 µM

So what's the measured TGI for this one? COc1ccc2c3c1OC1C(=O)C=CC4(CC2)N(C)CCC314 (stereo not drawn)
33.7 µM

So what's the measured TGI for this one? CCCC(=O)NC(Nc1ccc(S(=O)(=O)Nc2cc(C)on2)cc1)(C(=O)OCC)C(F)(F)F (stereo not drawn)
> 100 µM

So what's the measured TGI for this one? C=C/C=C/NC(=O)OCc1ccccc1
> 100 µM

So what's the measured TGI for this one? Cc1cc(NCCCN(C)C)c2ccc3c(ccc4c(NCCCN(C)C)cc(C)nc43)c2n1
> 100 µM

So what's the measured TGI for this one? Cc1cn(C2CC3C(COCN3O)O2)c(=O)[nH]c1=O (stereo not drawn)
> 100 µM

So what's the measured TGI for this one? CCCCOC(=O)N1CCN(/[N+]([O-])=N/Oc2ccc([N+](=O)[O-])cc2[N+](=O)[O-])CC1
> 100 µM

So what's the measured TGI for this one? O=[N+]([O-])c1ccc2sc(C=Nc3cnccn3)cc2c1
45.5 µM

So what's the measured TGI for this one? CC1CCCC2(CC[N+](C)(CCC[N+](C)(C)C)CC2)C1 (stereo not drawn)
> 100 µM
